Tested on: OVCAR-5 ovarian
Assay: NCI tumour cell line growth inhibition, 48 h
Give TGI for every item shown.

Query :: Missing value: TGI, OVCAR-5 ovarian, entry Cc1cc(O)c(C2=NN(c3ccc(S(N)(=O)=O)cc3)C(c3ccccc3Cl)C2)cc1Cl (stereo not drawn) . Fill in?
Result :: 3.3 µM

Query :: Checklist item: TGI tested on OVCAR-5 ovarian, entry COc1cc(Nc2c(C#N)cnc3cc(OCCCN4CCN(C)CC4)c(OC)cc23)c(Cl)cc1Cl , value?
Result :: 16.2 µM

Query :: Checklist item: TGI tested on OVCAR-5 ovarian, entry Cc1cc(C(=C2C=CC(=Nc3ccccc3)C=C2)c2ccc(Nc3ccccc3)cc2)ccc1N , value?
Result :: 0.671 µM

Query :: So what TGI did COc1ccc2c(c1)[n+]([O-])c(-c1ccc(OC)c(OC)c1)c(N)[n+]2[O-] get with OVCAR-5 ovarian?
Result :: > 100 µM

Query :: Report TGI for N#C/C(c1nc2ccccc2[nH]1)=c1\s/c(=C/c2ccc(Cl)cc2)c(=O)n1-c1ccccc1 tested on OVCAR-5 ovarian.
Result :: > 100 µM

Query :: Entry COC(=O)CNS(=O)(=O)c1ccc(-c2c3nc(c(-c4ccc(S(=O)(=O)NCC(=O)OC)cc4)c4ccc([nH]4)c(-c4ccc(S(=O)(=O)NCC(=O)OC)cc4)c4nc(c(-c5ccc(S(=O)(=O)NCC(=O)OC)cc5)c5ccc2[nH]5)C=C4)C=C3)cc1 , system OVCAR-5 ovarian: what TGI was measured?
Result :: > 100 µM

Query :: Request: TGI, test system OVCAR-5 ovarian, entry COc1ccc(-c2nc(/C=N/Nc3cc(C)nc4ccc(Cl)cc34)c(C)o2)cc1
Result :: 3.07 µM

Query :: Quick check: TGI on OVCAR-5 ovarian, item CNc1ccc2c(c1)[C@@]1(C)c3ccccc3[C@@H](C2)N1C ?
Result :: 86.2 µM
